- assay-procedure: solvent given as SMILES
- test-parameters: in c1ccccc1
readout-label: absorption maximum (nm)
Kindly answer with a numeric value in nm, unit omitted.

# annotated cases, reported absorption maximum shown
CN(C)c1ccc(C(=O)c2ccccc2)cc1 | 340
CCCCCCCCC1(CCCCCCCC)c2cc(-c3ccc(C(F)(F)F)cc3)ccc2-c2ccc(N(c3ccc(-n4c5ccccc5c5ccccc54)cc3)c3ccc4c(c3)C(CCCCCCCC)(CCCCCCCC)c3cc(-c5ccc(C(F)(F)F)cc5)ccc3-4)cc21 | 378

**Q:** Answer with reported absorption maximum of CN(C)c1ccc(/C=C/C=C2\CCCC2=O)cc1
**A:** 411

**Q:** Answer with reported absorption maximum of CN(C)c1ccc(/C=C/C(=O)c2ccc(Cl)cc2)cc1
**A:** 420

**Q:** Answer with reported absorption maximum of CN(C)c1ccc(/C=C/C=C/c2nc3ccccc3o2)cc1
**A:** 411

**Q:** Answer with reported absorption maximum of CC(C)[Si]1(C(C)C)c2cc(C#N)ccc2-c2ccc(N(C)C)cc21
**A:** 360

**Q:** Answer with reported absorption maximum of CC1(C)Cc2c(c3ccccc3c3nc4ccccc4nc23)O1
**A:** 458.09

**Q:** Answer with reported absorption maximum of CN(C)c1ccc(/C=C2\CCCC2=O)cc1
**A:** 380

**Q:** Answer with reported absorption maximum of Cc1c2oc3c(C)c(N)cc(C(=O)NC4OC(=O)C(C(C)C)N(C)C(=O)CN(C)C(=O)C5CCCN5C(=O)C(C(C)C)NC4=O)c3nc-2c(C(=O)NC2OC(=O)C(C(C)C)N(C)C(=O)CN(C)C(=O)C3CCCN3C(=O)C(C(C)C)NC2=O)c(N)c1=O (centres undefined)
**A:** 522.11

**Q:** Answer with reported absorption maximum of COc1ccc(-c2cc(-c3ccc(OC)cc3)c3c(N)nc(N4CCCC4)c(C#N)c3n2)cc1
**A:** 420

**Q:** Answer with reported absorption maximum of CNc1cccc2c1C(=O)c1ccccc1-2
**A:** 445

**Q:** Answer with reported absorption maximum of CC1(C)CC(/C=C/c2ccc(N3CCOCCOCCOCCOCC3)cc2)=CC(=C(C#N)C#N)C1
**A:** 500

**Q:** Answer with reported absorption maximum of Cc1ccc(Nc2ccc(Nc3ccc(C)cc3)c3c2C(=O)c2ccccc2C3=O)cc1
**A:** 642

**Q:** Answer with reported absorption maximum of CCCCC[n+]1ccc(/C=C/c2ccc(N(C)C)c3ccccc23)c2ccccc21
**A:** 494

* * *

absorption maximum values for the molecules below.
- assay-procedure: solvent given as SMILES
- test-parameters: in C1CCOC1
Kindly answer with a numeric value in nm, unit omitted.

# annotated cases, reported absorption maximum shown
CN(C)c1ccc(C(=Cc2ccc(/C=C(\C#N)c3ccccc3)cc2)c2ccc(N(C)C)cc2)cc1 | 436
N#Cc1ccc(C[C@H](N)C(=O)O)cc1 | 236.81
CCCCCOc1cc2oc(=O)c3c4occc4c4ccc5cccc6c(c1)c2c3c4c56 | 422
CCn1c2ccsc2c2c3nsnc3c3c4sccc4n(CC)c3c21 | 436

From here, focus on the item given below.
**Q:** Answer with reported absorption maximum of CC1(C)c2ccccc2N(c2ccc3c(c2)c2cc(N4c5ccccc5C(C)(C)c5ccccc54)cc4c5ccccc5n3c42)c2ccccc21
**A:** 367
